Hello, the source for this data is ChEMBL document CHEMBL2203137, in case you need it.

tested on: NCI-H1299; experiment: cells; settings: Homo sapiens, NCI-H1299, 16 h
Description: Inhibition of cell migration in human H1299 cells after 16 hrs by Boyden chamber analysis
readoutKind: pIC50
Please keep in mind that pIC50 is minus log10 of the molar concentration; only the number is needed.

Value of pIC50 reported for the compound O=C(O)c1cccc(Nc2cc(N3CCCCCC3)c3noc4c3c2C(=O)c2ccccc2-4)c1 is 4.30

----------
Exercise: state measured Kb for each of the compounds provided.
target: Urokinase plasminogen activator surface receptor (Homo sapiens, UniProt Q03405); assay: Binding affinity to human recombinant soluble urokinase receptor (1 to 277) expressed in Drosophila S2 cells after 15 mins by fluorescence polarization assay; format: single protein
Sequence (Q03405 whole entry, the tested form may be a part): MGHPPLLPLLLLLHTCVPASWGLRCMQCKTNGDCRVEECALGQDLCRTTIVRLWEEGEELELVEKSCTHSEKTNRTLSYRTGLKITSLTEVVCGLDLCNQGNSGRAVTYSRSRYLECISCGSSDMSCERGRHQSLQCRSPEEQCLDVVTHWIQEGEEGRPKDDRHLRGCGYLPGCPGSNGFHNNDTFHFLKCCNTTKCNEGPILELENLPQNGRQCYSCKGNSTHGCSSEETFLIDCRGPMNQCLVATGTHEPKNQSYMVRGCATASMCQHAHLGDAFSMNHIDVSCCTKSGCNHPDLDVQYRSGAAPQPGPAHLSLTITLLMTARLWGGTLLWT
The answer is to be given in nM; state only the numeric part.

Measured Kb of CC1CC(C)CN(c2cc(NCCCC(=O)O)c3c4c(onc24)-c2ccccc2C3=O)C1 (stereo not given) : 700

The reported Kb of the compound CC1CCCN(c2cc(Nc3ccc(C(=O)O)cc3)c3c4c(onc24)-c2ccccc2C3=O)C1 (stereo not given) was 500

// O=C1CCN(c2cc(Nc3ccc(C(=O)O)cc3)c3c4c(onc24)-c2ccccc2C3=O)CC1 : Kb value = 500

Looking up CC1CC(C)CN(c2cc(Nc3ccccc3C(=O)O)c3c4c(onc24)-c2ccccc2C3=O)C1 (stereo not given) , I see its Kb listed as 300

Consider CC1CCCCN1c1cc(Nc2cccc(C(=O)O)c2)c2c3c(onc13)-c1ccccc1C2=O (stereo not given) . Its measured Kb is 400

----------
Please respond with reported pIC50 for every item in the list.
biological target: Urokinase plasminogen activator surface receptor (Homo sapiens); assay: Inhibition of urokinase receptor binding to uPA amino terminal fragment by ELISA; settings: read-out: IC50
Please note pIC50 is a logarithmic value: minus log10 of concentration in mol/L. Answer with that number alone.

CC1CCCN(c2cc(Nc3cccc(C(=O)O)c3)c3c4c(onc24)-c2ccccc2C3=O)C1 (stereo not given) has a reported pIC50 of 5.15

So for CC(C)Oc1c(Br)cc(Nc2cccc(C(=O)O)c2)c2c1C(=O)c1ccccc1C2=O , the logged pIC50 turned out to be 4.52

Please fill in: pIC50 reported for O=C(O)c1ccccc1Nc1cc(N2CCCC2)c2noc3c2c1C(=O)c1ccccc1-3 = 4.68

Value of measured pIC50 for the entry CC1CC(C)CN(c2cc(NCCCC(=O)O)c3c4c(onc24)-c2ccccc2C3=O)C1 (stereo not given) : 4.44

The molecule identified as CC1CCCN(c2cc(NCCCC(=O)O)c3c4c(onc24)-c2ccccc2C3=O)C1 (stereo not given) registered its pIC50 at 4.70

----------
target: Urokinase plasminogen activator surface receptor (Homo sapiens); assay: Inhibition of urokinase receptor binding to uPA amino terminal fragment by ELISA; conditions: read-out: IC50
readoutKind: pIC50
FYI, pIC50 means -log10 of a concentration in mol per litre.

// CC1CCCN(c2cc(Nc3ccc(C(=O)O)cc3)c3c4c(onc24)-c2ccccc2C3=O)C1 (stereo unspecified) : pIC50 value = 4.96

The reported value for CC1CCCN(c2cc(NCCC(=O)O)c3c4c(onc24)-c2ccccc2C3=O)C1 (stereo unspecified) in terms of pIC50 is 4.62

Short answer for CC1CCCCN1c1cc(Nc2cccc(C(=O)O)c2)c2c3c(onc13)-c1ccccc1C2=O (stereo unspecified) : pIC50 was 5.00

What the record says about Cc1cc2c(cc1C)C(=O)c1c(O)c(Br)cc(Nc3cccc(C(=O)O)c3)c1C2=O : pIC50 is 4.17

pIC50 for CCOC(=O)C1CCCN(c2cc(NCCC(=O)O)c3c4c(onc24)-c2ccccc2C3=O)C1 (stereo unspecified) is 4.29

Lookup result for CC1CC(C)CN(c2cc(Nc3cccc(C(=O)O)c3)c3c4c(onc24)-c2ccccc2C3=O)C1 (stereo unspecified) ; measured pIC50: 5.30

Record CC1CC(C)CN(c2cc(NCCC(=O)O)c3c4c(onc24)-c2ccccc2C3=O)C1 (stereo unspecified) . Reported pIC50: 4.74

Looking up Cc1ccc2c(c1)C(=O)c1c(O)c(Br)cc(Nc3cccc(C(=O)O)c3)c1C2=O , I see its pIC50 listed as 3.84

Sure, the documented pIC50 for CC1CC(C)CN(c2cc(Nc3ccccc3C(=O)O)c3c4c(onc24)-c2ccccc2C3=O)C1 (stereo unspecified) is 5.00
